# MEASUREMENT_PROTOCOL: In vivo plasma pharmacokinetics in beagle dogs
# CONDITIONS: beagle, iv, Dog, I.V. 1 mg/kg
OBSERVED_PROPERTY: AUC(0-t) (ng·h/mL)
Your answer should be a plain number; it is taken to be in ng·h/mL.

Find the recorded AUC(0-t) belonging to CC[C@H]1CN2CCc3cc(OC)c(OC)cc3[C@@H]2C[C@@H]1C[C@H]1NCCc2cc(OC)c(OC)cc21 [Emetine] and report it.
449

====

# MEASUREMENT_PROTOCOL: In vivo plasma pharmacokinetics in beagle dogs
# CONDITIONS: beagle, iv, Dog, I.V. 1 mg/kg, read-out: MRT0-t
OBSERVED_PROPERTY: MRT last (h)
Your answer should be a plain number; it is taken to be in h.

Find the recorded MRT last belonging to CC[C@H]1CN2CCc3cc(OC)c(OC)cc3[C@@H]2C[C@@H]1C[C@H]1NCCc2cc(OC)c(OC)cc21 [Emetine] and report it.
3.2
